In this section, each of the compounds is paired with its reported inhibition at 1 µM.
molecular target: CDK2/E (Homo sapiens (Human)); test: ADP-Glo Kinase Assay, CDK2/E; type: biochemical; details: 1 μM compound; read-out: CDK2/E % INH (1 μM)

Use these answered entries as a reference point.
{"compound": "CC(C)n1c(N2CCOC(CN)C2)nc2c(C#N)c(Br)c(Br)cc21 (stereo not drawn)", "target_under_test": "CDK2/E (Homo sapiens (Human))", "inhibition at 1 µM": "< 5%"}
{"compound": "CCn1c(N2CCNC(C)C2)nc2c([N+](=O)[O-])c(Br)c(Br)cc21 (stereo not drawn) [Example 22X]", "target_under_test": "CDK2/E (Homo sapiens (Human))", "inhibition at 1 µM": "< 5%"}

Attention now shifts to the item below.
Return reported inhibition at 1 µM; argument: CC(C)n1c(NC2CCNC2)nc2c(C#N)c(Br)c(Br)cc21 (stereo not drawn)
< 5%
